Target: T1, Native human IL-18 (human, UniProt Q14116 37-193)
T1 sequence: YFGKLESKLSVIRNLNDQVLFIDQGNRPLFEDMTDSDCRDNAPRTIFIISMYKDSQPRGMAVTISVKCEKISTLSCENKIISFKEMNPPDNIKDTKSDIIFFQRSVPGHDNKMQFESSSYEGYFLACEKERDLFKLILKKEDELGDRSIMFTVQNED
Assay: cell-based or functional assay
measured-parameter: IC50, inhibition of IFN-γ release, PBMC, Native IL-18 (LPS/IL-12) (pM)
Could you give me the number in pM? Just the number is fine.

Find the recorded IC50, inhibition of IFN-γ release, PBMC, Native IL-18 (LPS/IL-12) belonging to MOR9464_N30V (antibody, human IgG1, lambda, L234A L235A, V domains shown) VH: EVQLVQSGAEVKKPGSSVKVSCKASGGTFVSYAISWVRQAPGQGLEWMGNIIPMTGQTYYAQKFQGRVTITADESTSTAYMELSSLRSEDTAVYYCARAAYHPLVFDNWGQGTLVTVSS VL: DIVLTQPPSVSGAPGQRVTISCSGSSSNIGNHYVNWYQQLPGTAPKLLIYRNNHRPSGVPDRFSGSKSGTSASLAITGLQSEDEADYYCQSWDYSGFSTVFGGGTKLTVLG and report it.
110

Cool, now MOR9464_N30R (antibody, human IgG1, lambda, L234A L235A, V domains shown) VH: EVQLVQSGAEVKKPGSSVKVSCKASGGTFRSYAISWVRQAPGQGLEWMGNIIPMTGQTYYAQKFQGRVTITADESTSTAYMELSSLRSEDTAVYYCARAAYHPLVFDNWGQGTLVTVSS VL: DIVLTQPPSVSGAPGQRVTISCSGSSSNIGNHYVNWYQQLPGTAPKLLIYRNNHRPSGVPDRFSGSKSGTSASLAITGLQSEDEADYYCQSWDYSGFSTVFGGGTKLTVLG
40

Cool, now MOR10222_E1Q_N30S_M54N (antibody, human IgG1, lambda, L234A L235A, V domains shown) VH: QVQLVQSGAEVKKPGSSVKVSCKASGGTFSSYAISWVRQAPGQGLEWMGNIIPNTGQTYYAQKFQGRVTITADESTSTAYMELSSLRSEDTAVYYCARAAYHPLVFDNWGQGTLVTVSS VL: QSVLTQPPSASGTPGQRVTISCSGSSSNIGNHYVNWYQQLPGTAPKLLIYRNNHRPSGVPDRFSGSKSGTSASLAISGLQSEDEADYYCQSWDYSGFSTVFGGGTKLTVLG
30
